The measurements presented in this section are drawn from PubChem BioAssay (NCATS).

Property: max response; scope: individual molecules
# assayDetails: qHTS assay for cell viability of HEK293 cells (AID 743288); further: on the % scale 0 is the no-effect control and ±100 the full control effect; nearly all actives have a fitted effect of over 50% in size
# testParameters: ATP luminescence (CellTiter-Glo), 18 h, active compounds read low
Records with an inconclusive call do not appear.
Give just the numeric value; % need not be written.

Answered cases to consult:
[
  {
    "molecule": "CC(C)Br",
    "max response (%)": -0.407
  },
  {
    "molecule": "Nc1cccc(Cl)c1",
    "max response (%)": -8.5
  },
  {
    "molecule": "N#CC(Cl)(Cl)Cl",
    "max response (%)": -13
  }
]

For reference, reported max response for O=C(O)C(Cl)(Cl)Br stands at 5.15

Recorded result, ClC(Cl)c1ccccc1 , max response: -9.22

max response measured on C=C(Cl)CSC(=S)N(CC)CC = 5.22

Per the record, CC[N+](=O)[O-] has max response of 0.073

The value of max response measured for the molecule CCCBr turned out to be -3.65

Entry ClC=CCl — recorded max response = -11.1

Query Nc1cc(Cl)cc(Cl)c1 yields max response of 5.59

get_value(item= CC(C#N)CCC#N (stereo not drawn) , readout=max response) returns -7.04

Measured max response of N#CC(Br)Br : -22.9

Noted for Clc1ccc(C(Cl)(Cl)Cl)c(Cl)c1 : its max response reads -3.16

Per the records, this molecule ( ClC(Cl)(Cl)C(Cl)(Cl)Cl ) has max response equal to 3.22

Short answer for O=C(Cc1ccccc1)OCc1ccccc1 : max response was -0.778

max response measured on Cl/C=C\Cl = -1.83

Lab note: ClP(Cl)(Cl)(Cl)Cl gave max response of -14.3

Measured max response of S=c1[nH]c2ccccc2[nH]1 : 7.64

---

# assayDetails: qHTS assay for small molecule disruptors of the mitochondrial membrane potential - 5 hr assay (AID 651755); further: on the % scale 0 is the no-effect control and ±100 the full control effect; nearly all actives have a fitted effect of over 40% in size
# testParameters: JC-1-type ratio dye; series mostly up to 92.2 µM
Records with an inconclusive call do not appear. Activity calls are given as the source filed them. The call rests on the fitted dose curve.
Form entry, call: pick from active, inactive

Check out these entries, answers already filled in.
[
  {
    "molecule": "O=[N+]([O-])c1cccc2c([N+](=O)[O-])cccc12",
    "classification": "inactive"
  },
  {
    "molecule": "O=C(O)CBr",
    "classification": "inactive"
  },
  {
    "molecule": "O=[N+]([O-])c1cc(Cl)c(Cl)c(Cl)c1",
    "classification": "inactive"
  },
  {
    "molecule": "Clc1ccc(C(Cl)(Cl)Cl)c(Cl)c1",
    "classification": "inactive"
  },
  {
    "molecule": "COC(=O)Nc1nc2ccccc2[nH]1",
    "classification": "inactive"
  }
]

// param item: C=C(C)CCl ; yields the recorded call
inactive

So what was the verdict on c1ccc(NNc2ccccc2)cc1 in this test?
inactive

---

# assayDetails: qHTS assay for small molecule activators of the p53 signaling pathway (AID 651743); further: % of control where 0% means no effect
# testParameters: HCT-116 p53RE-bla, beta-lactamase FRET ratio, 16 h; active compounds read high
Records with an inconclusive call do not appear.
endpoint: activation (%)
Unit % implied. Number only.

Reference set (3 entries):
[
  {
    "molecule": "C=CCBr",
    "activation (%)": -2.4
  },
  {
    "molecule": "CN(C)c1ccc(N=Nc2ccccc2)cc1",
    "activation (%)": -7.04
  },
  {
    "molecule": "Cl/C=C/Cl",
    "activation (%)": -3.7
  }
]

For record FC(Cl)(Cl)Cl the listed activation is -3.53

Sure, the documented activation for c1ccc2c(c1)CCNC2 is -2.09

---

# assayDetails: NFAT Signaling Pathway (AID 444);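 further: carbachol stimulus at about its EC50 of 1 µM final; on the % scale 0 is the no-effect control and ±100 the full control effect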
# testParameters: Jurkat NFAT-bla M1, carbachol, beta-lactamase ratio, 5 h; at 7.69 µM (top of the series) unless noted
# Description: NCGC Assay Overview: The nuclear factor of activated T cells (NFAT) family of transcription factors has been found primarily in most immune system cells and some other non-immune cells. NFAT plays the immunomodulatory role, primarily in T-cell activation and differentiation. […] NCGC Assay Protocol Summary: The cells were prepared in RPMI 1640 medium containing 0.1% dialyzed FBS and 25 mM HEPES at 1.6 x 10^6cell/ml. […] The %Activity was determined from the ratio of 460nm/530nm. […]
Results filed as inconclusive are left out. Calls of active or inactive are those of the source. The call rests on the fitted dose curve; in most records, active means well fitted curve in either direction with a large enough effect (not every such curve was filed as active); inconclusive means small, poorly fitted or top-dose-only effect, or another doubt; inactive means flat fitted curve, though single readings scatter.
endpoint: activity change, negative = inhibition

[
  {
    "chemSmiles": "C[C@@H]1CC[C@@H]2N(C1)C[C@H]1[C@@](O)([C@H](O)C[C@]3(O)[C@H]4CC[C@H]5[C@]6(O)O[C@]4(C[C@]13O)[C@@]5(C)CC[C@@H]6O)[C@@]2(C)O",
    "endpoint": "activity change, negative = inhibition",
    "assayResult": "4.97% (inactive)"
  },
  {
    "chemSmiles": "c1nc(N2CC2)c2cnn([C@@H]3CCCCO3)c2n1",
    "endpoint": "activity change, negative = inhibition",
    "assayResult": "7.32% (inactive)"
  },
  {
    "chemSmiles": "COc1ccc(C[C@@H](N)c2ccc(OC)cc2)cc1",
    "endpoint": "activity change, negative = inhibition",
    "assayResult": "3.98% (inactive)"
  },
  {
    "chemSmiles": "NC(N)=NCCN=C(N)N",
    "endpoint": "activity change, negative = inhibition",
    "assayResult": "-0.323% (inactive)"
  },
  {
    "chemSmiles": "NC[C@@H](O)CSP(=O)(O)O",
    "endpoint": "activity change, negative = inhibition",
    "assayResult": "-18.7% (inactive)"
  },
  {
    "chemSmiles": "CC(C)C[C@H](NP(=O)(O)O[C@@H]1O[C@@H](C)[C@@H](O)[C@@H](O)[C@H]1O)C(=O)N[C@@H](Cc1c[nH]c2ccccc12)C(=O)O",
    "endpoint": "activity change, negative = inhibition",
    "assayResult": "9.26% [at 38 µM] (inactive)"
  },
  {
    "chemSmiles": "N[C@@H](Cc1c[nH]c2cc([N+](=O)[O-])ccc12)C(=O)O",
    "endpoint": "activity change, negative = inhibition",
    "assayResult": "5.87% (inactive)"
  },
  {
    "chemSmiles": "C[C@]12CC[C@H](O)CC1=CC[C@@H]1[C@H]2CC[C@]2(C)C(=O)CC[C@H]12",
    "endpoint": "activity change, negative = inhibition",
    "assayResult": "2.55% [at 38 µM] (inactive)"
  },
  {
    "chemSmiles": "CN(C)CCCNc1c2c(nc3ccc(Cl)cc13)CCCC2",
    "endpoint": "activity change, negative = inhibition",
    "assayResult": "-26.1% (inactive)"
  }
]

Continue with the next compound.
The reported activity change, negative = inhibition of the compound C[C@]12CC[C@@H]3[C@H](CCC4=CC(=O)CC[C@]43C)[C@]1(O)CC[C@@]2(O)C(=O)CO was 5.17% (inactive)

---

# assayDetails: NFAT Signaling Pathway (AID 444);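 further: carbachol stimulus at about its EC50 of 1 µM final; on the % scale 0 is the no-effect control and ±100 the full control effect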
# testParameters: Jurkat NFAT-bla M1, carbachol, beta-lactamase ratio, 5 h; at 7.69 µM (top of the series) unless noted
Inconclusive results are not listed. Calls of active or inactive are those of the source. Calls follow the shape of the dose curve; as a rule, active = well fitted curve in either direction with a large enough effect (not every such curve was filed as active); inconclusive = small, poorly fitted or top-dose-only effect, or another doubt; inactive = flat fitted curve, though single readings scatter.
Outcomes you can answer with include only these: active, inactive

// param item: CN1C[C@H](C(=O)N[C@@]2(C)O[C@@]3(O)[C@H]4CCCN4C(=O)[C@@H](Cc4ccccc4)N3C2=O)C=C2c3cccc4[nH]cc(c34)C[C@@H]21 ; yields the recorded call
inactive

Field: outcome | Entry: N[C@H](Cn1ccc(=O)[nH]c1=O)C(=O)O
inactive

Name the outcome recorded for Nc1ccc(S(=O)(=O)c2ccc(NCN3C(=O)NC(=O)C(=O)C3=O)cc2)cc1 in the assay.
inactive

Which outcome did this test record for the compound CSC([N-]/N=C/c1cccc(C)n1)=[S]=[Cu].CS[C@H]([S-])[N-]/N=C/c1cccc(C)n1 ?
active

Tell me the assay call for COc1cc2c(cc1O)C[C@@H]1c3c(cc(O)c(OC)c3-2)CCN1C please.
inactive

---

# assayDetails: Cell Viability - Jurkat (AID 426);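 further: potency means the concentration at half of the fitted maximal effect; cells exposed to compound for 40 hours at 37 °C before ATP read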
# testParameters: qHTS
# Description: NIH Chemical Genomics Center [NCGC] NIH Molecular Libraries Screening Centers Network [MLSCN] National Institutes of Environmental Health Sciences [NIEHS] National Toxicology Program [NTP] We have developed a 1536-well cell-based assay for quantitative high throughput screening (qHTS) against a number of cell lines to determine in vitro cytotoxicity of small molecules. […] 7. Detection; Luminescence; Viewlux plate reader […]
Inconclusive results are not listed. Active and inactive are the calls of the source.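 How the source made its calls: active means dose-dependent loss of cell ATP signal giving a full or clear fitted curve, ranked by lower potency value; inconclusive means weak partial curve or response only at the top dose; inactive means no loss of viability signal.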
Allowed answers: active, inactive

For orientation, consider the following solved cases.
[
  {
    "compound": "ClC(Cl)(Cl)C(Cl)(Cl)Cl",
    "classification": "inactive"
  },
  {
    "compound": "N#C/C=C/C#N",
    "classification": "active"
  },
  {
    "compound": "Nc1ccc(-c2ccc(N)cc2)cc1",
    "classification": "inactive"
  },
  {
    "compound": "Oc1ccc(Cl)c(Cl)c1",
    "classification": "inactive"
  },
  {
    "compound": "Oc1c(Cl)cccc1Cl",
    "classification": "inactive"
  },
  {
    "compound": "N#CCCC#N",
    "classification": "inactive"
  }
]

Status in this test for O=[N+]([O-])c1ccc(Cl)c(Cl)c1Cl ?
inactive

Would you mind telling me which call this test gave CC12CC1(C)C(=O)N(c1cc(Cl)cc(Cl)c1)C2=O (stereo unspecified) ?
inactive
